target: human A3AR (Homo sapiens, UniProt P0DMS8); construct: expressed in transfected cells; assay: LOPAC library primary screen: single concentration (10 μM) inhibition of 25 nM CA200645 binding, PHERAstar FS
Sequence (P0DMS8 whole entry): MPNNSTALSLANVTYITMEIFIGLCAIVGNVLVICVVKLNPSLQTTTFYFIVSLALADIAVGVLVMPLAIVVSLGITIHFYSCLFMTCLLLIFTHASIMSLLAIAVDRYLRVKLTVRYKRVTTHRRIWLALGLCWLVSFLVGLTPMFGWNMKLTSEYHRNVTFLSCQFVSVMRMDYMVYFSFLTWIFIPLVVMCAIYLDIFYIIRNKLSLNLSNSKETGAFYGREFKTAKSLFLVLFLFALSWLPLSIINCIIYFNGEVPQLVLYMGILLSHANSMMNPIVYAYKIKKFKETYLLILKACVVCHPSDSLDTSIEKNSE
Where a name gives a salt, the structure may show the parent alone.
quantity.kind: % 25 nM CA200645 binding (%)
Numbers only, in %.

Provide each entry's % 25 nM CA200645 binding from the list below.
1. C=CC[N+](C)(C)c1ccc(CCC(=O)CCc2ccc([N+](C)(C)CC=C)cc2)cc1.[Br-].[Br-]
2. CCc1cccc2c3c([nH]c12)C(CC)(CC(=O)O)OCC3 (centres unmarked)
3. CCCC(CCC)C(=O)O[C@H]1C[C@H]2CC[C@@H](C1)[N+]2(C)C [Anisotropine methyl bromide]

1. 100.9
2. 97.1
3. 97.1

Provide each entry's % 25 nM CA200645 binding from the list below.
1. CNCCNS(=O)(=O)c1cccc2cnccc12.Cl.Cl [H-8 dihydrochloride]
2. Br.NC1CCc2cc(O)c(O)cc2C1 (centres unmarked) [6,7-ADTN hydrobromide]
3. Cc1ccc(S(=O)(=O)/C=C/C#N)cc1
4. CCN(CC)CCCN(c1ccccc1)C1Cc2ccccc2C1 [Aprindine hydrochloride]
5. CC(C)(C(=O)O)c1ccc(C(O)CCCN2CCC(C(O)(c3ccccc3)c3ccccc3)CC2)cc1 (centres unmarked) [Fexofenadine hydrochloride]
6. CC#C[C@]1(O)CC[C@H]2[C@@H]3CCC4=CC(=O)CCC4=C3[C@@H](c3ccc(N(C)C)cc3)C[C@@]21C
7. C[C@H]1O[C@@H](n2cc(F)c(=O)[nH]c2=O)[C@H](O)[C@@H]1O
8. O=C(O)CC[N+](=O)[O-]

1. 106.4
2. 100.4
3. 104.6
4. 96.8
5. 93.9
6. 83.5
7. 95.4
8. 111.3

----------
molecular target: human A3AR (Homo sapiens); construct: expressed in transfected cells; assay: LOPAC library primary screen: single concentration (10 μM) inhibition of 25 nM CA200645 binding, PHERAstar FS
Where a name gives a salt, the structure may show the parent alone.
quantity.kind: % 25 nM CA200645 binding (%)
Give bare numbers, in %.

{"columns": ["molecule", "% 25 nM CA200645 binding / %"],
 "data": [
  ["COC(=O)[C@H]1[C@H]2C[C@H]3c4[nH]c5ccccc5c4CCN3C[C@H]2CC[C@@H]1O [Rauwolscine hydrochloride]", 96.5]
]}

Provide each entry's % 25 nM CA200645 binding from the list below.
1. CCCN1CCC[C@H](c2cccc(O)c2)C1.Cl [R(+)-3PPP hydrochloride]
2. NC[C@H](O)c1ccc(O)c(O)c1.O=C(O)C(O)C(O)C(=O)O [L(-)-Norepinephrine bitartrate]
3. O=C1c2c(O)cc(O)cc2O[C@H](c2ccc(O)c(O)c2)[C@H]1O (racemic) [(±)-Taxifolin]
4. Cc1[nH]c(=O)c(C#N)cc1-c1ccncc1

1. 88.4
2. 97.7
3. 111.1
4. 97.0

----------
molecular target: human A3AR (Homo sapiens, UniProt P0DMS8); construct: expressed in transfected cells; assay: LOPAC library primary screen: single concentration (10 μM) inhibition of 25 nM CA200645 binding, PHERAstar FS
Structures can show the parent of a compound that is named as a salt.
quantity.kind: % 25 nM CA200645 binding (%)
Give bare numbers, in %.

Before answering, review these 8 worked examples.
{"columns": ["molecule", "test.system", "quantity.kind", "val"],
 "data": [
  ["Cl.NC[C@@H]1O[C@H](c2ccccc2)Cc2c1ccc(O)c2O [A-68930 hydrochloride]", "human A3AR (Homo sapiens, UniProt P0DMS8)", "% 25 nM CA200645 binding", 95.6],
  ["CN1C(=O)CC[C@H]1c1cccnc1 [(-)-Cotinine]", "human A3AR (Homo sapiens, UniProt P0DMS8)", "% 25 nM CA200645 binding", 106.5],
  ["CCCN1CCOC2c3cc(O)ccc3OCC21.Cl (racemic) [(±)-PD 128,907 hydrochloride]", "human A3AR (Homo sapiens, UniProt P0DMS8)", "% 25 nM CA200645 binding", 103.2],
  ["COc1cccc(OC)c1OCCNCC1CSc2ccccc2O1 (stereo not shown) [Benoxathian hydrochloride]", "human A3AR (Homo sapiens, UniProt P0DMS8)", "% 25 nM CA200645 binding", 95.8],
  ["CN1C2CCC1CC(OC(=O)c1c[nH]c3ccccc13)C2.Cl (stereo not shown)", "human A3AR (Homo sapiens, UniProt P0DMS8)", "% 25 nM CA200645 binding", 109.6],
  ["NNCCc1ccccc1 [Phenelzine sulfate]", "human A3AR (Homo sapiens, UniProt P0DMS8)", "% 25 nM CA200645 binding", 99.4],
  ["c1ccc(-c2ccccn2)nc1 [2,2'-Bipyridyl]", "human A3AR (Homo sapiens, UniProt P0DMS8)", "% 25 nM CA200645 binding", 105.2],
  ["CN(C)CCC(c1ccc(Cl)cc1)c1ccccn1.O=C(O)/C=C\\C(=O)O (racemic) [(±)-Chlorpheniramine maleate]", "human A3AR (Homo sapiens, UniProt P0DMS8)", "% 25 nM CA200645 binding", 99.2]
]}

Provide each entry's % 25 nM CA200645 binding from the list below.
1. COc1ccc(/C=C/C(=O)Nc2ccccc2C(=O)O)cc1OC [Tranilast]
2. COc1ccc2c(c[n+](C)c3c4cc5c(cc4ccc23)OCO5)c1OC [Chelerythrine chloride]

[95.7, 73.9]

----------
target: human A3AR (Homo sapiens); construct: expressed in transfected cells; test: LOPAC library primary screen: single concentration (10 μM) inhibition of 25 nM CA200645 binding, PHERAstar FS
Where a name gives a salt, the structure may show the parent alone.
quantity.kind: % 25 nM CA200645 binding

Before answering, review these 8 worked examples.
{"columns": ["compound", "% 25 nM CA200645 binding"],
 "data": [
  ["CC(CCc1ccccc1)NCC(O)c1ccc(O)c(C(N)=O)c1 (stereo not drawn) [Labetalol hydrochloride]", "97.5 ± 13.9%"],
  ["C[N+]1(C)CCN(c2ccccc2)CC1.[I-]", "102.6 ± 13.3%"],
  ["CC(=O)C(C)=O", "101.3 ± 15.0%"],
  ["Br.COc1ccc2c(c1)[C@]13CCCC[C@@H]1[C@H](C2)N(C)CC3.O", "102.0 ± 12.4%"],
  ["Cl.Cl.Oc1ccc2c3c1O[C@H]1c4[nH]c5c(c4C[C@@]4(O)[C@@H](C2)N(CC2CC2)CC[C@]314)C[C@@]1(O)[C@H]2Cc3ccc(O)c4c3[C@@]1(CCN2CC1CC1)[C@H]5O4 [nor-Binaltorphimine dihydrochloride]", "96.9 ± 14.7%"],
  ["O=C(CCCN1CCC2(CC1)C(=O)NCN2c1ccccc1)c1ccc(F)cc1 [Spiperone hydrochloride]", "85.1 ± 18.3%"],
  ["CC(C)[N+](C)(CCOC(=O)C1c2ccccc2Oc2ccccc21)C(C)C [Propantheline bromide]", "95.5 ± 4.8%"],
  ["CC(C)(C=O)Cc1cc(C(C)(C)C)c(O)c(C(C)(C)C)c1", "97.4 ± 7.1%"]
]}

Turning now to a further compound:
Any idea what its % 25 nM CA200645 binding is? The compound is COC(=O)[C@@H]1[C@H]2C[C@H]3c4[nH]c5ccccc5c4CCN3C[C@@H]2CC[C@@H]1O [Yohimbine hydrochloride]
100.6 ± 0.5%

----------
Could you please report measured % 25 nM CA200645 binding for the items listed next?
target: human A3AR (Homo sapiens); construct: expressed in transfected cells; experiment: LOPAC library primary screen: single concentration (10 μM) inhibition of 25 nM CA200645 binding, PHERAstar FS
Structures can show the parent of a compound that is named as a salt.
Numbers only, in %.

{"columns": ["molecule", "val"],
 "data": [
  ["C[N+](C)(C)CC=O [Betaine aldehyde chloride]", 95.0],
  ["O=c1[nH]c(=S)[nH]c(-c2ccccc2)c1Cc1c(O)ccc2ccccc12", 94.8],
  ["Nc1ncnc2c1c(-c1ccc(Oc3ccccc3)cc1)cn2C1CCCC1", 58.8],
  ["CCN(CC)CCNC(=O)c1ccc(NC(C)=O)cc1.Cl [N-Acetylprocainamide hydrochloride]", 86.4],
  ["Nc1ccc2c3c(cccc13)C(=O)NC2=O [4-Amino-1,8-naphthalimide]", 95.4],
  ["NC(=O)C1=CN([C@@H]2O[C@H](COP(=O)([O-])OP(=O)([O-])OC[C@H]3O[C@@H](n4cnc5c(N)ncnc54)[C@H](OP(=O)([O-])[O-])[C@@H]3O)[C@@H](O)[C@H]2O)C=CC1.[Na+].[Na+].[Na+].[Na+] [NADPH tetrasodium]", 112.0],
  ["Cl.NC1C=CC=C(C(=O)O)C1 (centres unmarked) [Gabaculine hydrochloride]", 97.5],
  ["N.N.N.Nc1ncnc2c1ncn2C1OC(COP(=O)(O)OP(=O)(O)OP(=O)(O)OP(=O)(O)OC[C@H]2O[C@@H](n3cnc4c(N)ncnc43)C(O)C2O)[C@@H](O)C1O (stereo in doubt)", 101.2],
  ["CCN(CC)C(C)CN1c2ccccc2Sc2ccccc21 (centres unmarked) [Ethopropazine hydrochloride]", 108.3],
  ["CC(C)NCC(O)COc1cccc2ccccc12.Cl (racemic) [(±)-Propranolol hydrochloride]", 106.0]
]}

Provide each entry's % 25 nM CA200645 binding from the list below.
1. Oc1ccc(Cn2cc[nH]c2=S)cc1 [1-(4-Hydroxybenzyl)imidazole-2-thiol]
2. CC(=O)c1ccc(S(=O)(=O)NC(=O)NC2CCCCC2)cc1 [Acetohexamide]
3. C=CCN1CC[C@]23c4c5ccc(O)c4O[C@H]2C(=O)CC[C@@]3(O)[C@H]1C5 [Naloxone hydrochloride]

[87.3, 101.4, 114.3]

Any idea what its % 25 nM CA200645 binding is? The molecule is OC[C@H]1O[C@@H](n2cnc3c(NC4CCCC4)ncnc32)[C@H](O)[C@@H]1O
69.6
